Test: Particle size analysis using the Aerosizer/Aerodisperser system
Format: physicochemical
Settings: particle size distribution, 30% under
Here the recorded SIZE, 30% UNDER is given for each entry.
Quick note: give the figure in micron, leave out the unit.

Examples with their reported SIZE, 30% UNDER follow.
| compound | reported result |
| --- | --- |
| CC(C)Cc1ccc(C(C)C(=O)O)cc1 (stereo not shown) [Example 1a, ibuprofen] | 18.21 |
| CC(C)Cc1ccc(C(C)C(=O)O)cc1 (stereo not shown) [Example 2, ibuprofen] | 11.57 |
| CC(C)Cc1ccc(C(C)C(=O)O)cc1 (stereo not shown) [Example 1b, ibuprofen] | 11.72 |

# ---- query compound ----
Entry CC(C)Cc1ccc(C(C)C(=O)O)cc1 (stereo not shown) [Example 1c, ibuprofen] , SIZE, 30% UNDER reported as 6.479

---

Assay: Particle size analysis using the Aerosizer/Aerodisperser system
Format: physicochemical
Conditions: particle size distribution, 5% under
readout name: SIZE, 5% UNDER (micron)
# output: bare number, implied unit micron

| molecule | readout name | reported result |
| --- | --- | --- |
| CC(C)Cc1ccc(C(C)C(=O)O)cc1 (stereo not shown) [Example 1b, ibuprofen] | SIZE, 5% UNDER | 5.920 |
| CC(C)Cc1ccc(C(C)C(=O)O)cc1 (stereo not shown) [Example 2, ibuprofen] | SIZE, 5% UNDER | 5.815 |
| CC(C)Cc1ccc(C(C)C(=O)O)cc1 (stereo not shown) [Example 1a, ibuprofen] | SIZE, 5% UNDER | 9.241 |

Pending molecule:
// sample CC(C)Cc1ccc(C(C)C(=O)O)cc1 (stereo not shown) [Example 1c, ibuprofen] , its SIZE, 5% UNDER was 3.762

---

Assay: Particle size analysis using the Aerosizer/Aerodisperser system
Assay type: physicochemical
Settings: particle size distribution, 90% under
SIZE, 90% UNDER for assorted compounds
The answer is to be given in micron; state only the numeric part.

Would you please look over these solved cases?
| compound | SIZE, 90% UNDER (micron) |
| --- | --- |
| CC(C)Cc1ccc(C(C)C(=O)O)cc1 (stereo not shown) [Example 1a, ibuprofen] | 35.44 |
| CC(C)Cc1ccc(C(C)C(=O)O)cc1 (stereo not shown) [Example 2, ibuprofen] | 24.42 |
| CC(C)Cc1ccc(C(C)C(=O)O)cc1 (stereo not shown) [Example 1c, ibuprofen] | 14.96 |

Next compound, SIZE, 90% UNDER to be filled in.
Please fill in: SIZE, 90% UNDER reported for CC(C)Cc1ccc(C(C)C(=O)O)cc1 (stereo not shown) [Example 1b, ibuprofen] = 23.67

---

The entries below are paired with their reported SIZE, 20% UNDER.
Assay: Particle size analysis using the Aerosizer/Aerodisperser system
Type: physicochemical
Conditions: particle size distribution, 20% under
// return numeric value only (unit: micron, not printed)

| compound | readout name | reported result |
| --- | --- | --- |
| CC(C)Cc1ccc(C(C)C(=O)O)cc1 (stereo not shown) [Example 1c, ibuprofen] | SIZE, 20% UNDER | 5.518 |

SIZE, 20% UNDER reading for CC(C)Cc1ccc(C(C)C(=O)O)cc1 (stereo not shown) [Example 1b, ibuprofen] : 9.720

Given item CC(C)Cc1ccc(C(C)C(=O)O)cc1 (stereo not shown) [Example 2, ibuprofen] , the value recorded as its SIZE, 20% UNDER is 9.612

Memo: CC(C)Cc1ccc(C(C)C(=O)O)cc1 (stereo not shown) [Example 1a, ibuprofen] , reported SIZE, 20% UNDER: 15.21
